type: physicochemical; details: pH 2.0; 2-8° C.; 3 h

compound | % assay/degs, difference from T = 0 [%]
N#C[C@@]1(c2ccc3c(N)ncnn23)O[C@H](COP(=O)(O)Oc2ccccc2)[C@@H](O)[C@H]1O | 0.02
CCC(CC)COC(=O)[C@H](C)N[P@](=O)(OC[C@H]1O[C@@](C(N)=O)(c2ccc3c(N)ncnn23)[C@H](O)[C@@H]1O)Oc1ccccc1 | 0.00
CCC(CC)COC(=O)[C@H](C)N[P@](=O)(OC[C@H]1O[C@@](C#N)(c2ccc3c(N)ncnn23)[C@H](O)[C@@H]1O)Oc1ccccc1 | 0.2
N#C[C@@]1(c2ccc3c(N)ncnn23)O[C@H](CO)[C@@H](O)[C@H]1O | 0.00
